These data points were gathered from ChEMBL document CHEMBL1201862.

# Test system: K562
# method-notes: NCI tumour cell line growth inhibition, 48 h
Active and inactive are the calls of the source. Rule as the data show it: active = GI50 up to about 1.1 µM and inactive = higher.
Your answer must be one of the following: true for active, false for inactive

Worked set:
c1ccc2c3c([nH]c2c1)[C@H]1C2CCCCN2CN1CC3 (some centres not stated) | false
N#CC(c1cc(Cl)ncn1)c1nc2ccccc2s1 (configuration not stated) | false
Nc1nc(SCCNC(=O)CCc2ccc(O)c(I)c2)nc2c1ncn2C1OC(CO)C(O)C1O (configuration not stated) | false
c1ccc(CSc2nc(N3CCCCC3)c3cn[nH]c3n2)cc1 | false
CCOC(=O)Cn1nnc2ccc(Nc3nc4ccccc4nc3C(=O)OCC)cc21 | false
OCCSCc1cc(Cl)cc(Cl)c1O | false

In the following, a different compound is considered.
Which outcome was entered for the compound Nc1nc(NCCCO)cc(=O)[nH]1 in this test?
false
